The origin of these recorded values is patent US9758492B2.

- assay_system: UniProt P14902
- test_details: IDO Kynurenine Assay with Human IDO1/HEK293 Cells
- cond: read-out: HEK human IDO-1 (IC50)
assay_readout: IC50 (nM)

The examples below pair each entry with its known result.
{"compound": "Cc1cc(NC(=O)Nc2cc(-c3ccccc3-c3nnn[nH]3)ccc2N(CC(C)C)CC(C)C)on1 [Example 396]", "assay_system": "UniProt P14902", "IC50 (nM)": 6.07}
{"compound": "Cc1ccc(NC(=O)Nc2cc(-c3cc(F)ccc3C(=O)O)c(F)cc2N(CC(C)C)C2CCCCC2)cc1 [Example 231]", "assay_system": "UniProt P14902", "IC50 (nM)": 2.13}
{"compound": "CC(C)CN(c1c(F)cc(-c2ccccc2-c2nnn[nH]2)cc1NC(=O)Nc1ccccc1F)C1CCCCC1 [Example 430]", "assay_system": "UniProt P14902", "IC50 (nM)": 0.606}
{"compound": "Cc1ccc(NC(=O)Nc2cc(-c3ccccc3-c3nnn[nH]3)ccc2N2CC3CC2CN3Cc2ccccc2)cc1 (stereo not shown) [Example 317]", "assay_system": "UniProt P14902", "IC50 (nM)": 50}
{"compound": "Cc1ccc(NC(=O)Nc2cc(-c3cc(F)ccc3C(=O)O)ccc2N(CCCC(F)(F)F)C2CCCCC2)cc1 [Example 415]", "assay_system": "UniProt P14902", "IC50 (nM)": 130}

P: CC(C)CN(c1ccc(-c2cc(F)ccc2C(=O)O)cc1NC(=O)Nc1cnc2c(c1)ncn2C)C1CCCCC1 [Example 487]
Q: CC(C)CN(CC(C)C)c1cc(F)c(-c2ccccc2C(=O)O)cc1NC(=O)Nc1ccc(Cl)cc1F [Example 427]
# return whichever of P and Q has the smaller IC50 Kindly state the label of the option you pick.
Q
(Q: 1.61 nM, P: 1050 nM)

* * *

- assay_system: Human IDO1 (Homo sapiens)
- test_details: IDO Kynurenine Assay with Human IDO1/HEK293 Cells
- cond: read-out: HEK human IDO-1 (IC50)
assay_readout: IC50 (nM)

The examples below pair each entry with its known result.
{"query_smiles": "Cc1ccc(NC(=O)Nc2cc(-c3cc(F)ccc3C(=O)O)ccc2N(CC(C)C)CC2CC(F)(F)C2)cc1", "unit_text": "nM", "numeric_result": 70}
{"query_smiles": "CC(C)CN(c1cc(F)c(-c2ccccc2-c2nnn[nH]2)cc1NC(=O)Nc1ccc2c(c1)OCO2)C1CCC(F)(F)CC1", "unit_text": "nM", "numeric_result": 4.82}

a: Cc1ccc(NC(=O)Nc2cc(-c3cc(F)ccc3C(=O)O)ccc2N(CCOC(C)C)CC(C)C)cc1
b: Cc1cnc(NC(=O)Nc2cc(-c3cc(F)ccc3C(=O)O)c(F)cc2N(CC(C)C)C2CCCCC2)cn1
c: O=C(Nc1ccc(C2CC2)cc1)Nc1cc(-c2ccccc2-c2nnn[nH]2)ccc1N(CCC(F)(F)F)Cc1ccc(OC(F)(F)F)cc1
d: COC[C@H](C)N(CCCC(F)(F)F)c1ccc(-c2ccccc2-c2nnn[nH]2)cc1NC(=O)Nc1ccc(C)cc1
e: Cc1ccc(NC(=O)Nc2cc(-c3cc(F)ccc3C(=O)O)c(F)cc2N(CC(C)C)C2CCCCC2)cn1
Given 5 compounds, produce a descending ranking by IC50. Use the labels to give the ranking in the order requested.
a, b, d, e, c
(a: 1740 nM, b: 90 nM, d: 20 nM, e: 7.9 nM, c: 5.53 nM)

* * *

- assay_system: Human IDO1 (Homo sapiens)
- test_details: IDO Kynurenine Assay with Human IDO1/HEK293 Cells
- cond: read-out: HEK human IDO-1 (IC50)
pIC50: −log10 of the molar value.
assay_readout: pIC50

The examples below pair each entry with its known result.
{"compound": "Cc1ccc(NC(=O)Nc2cc(-c3ccccc3C(=O)O)ccc2N(CCC(F)(F)F)Cc2ccc(Cl)cc2)cc1 [Example 14]", "pIC50": 7.00}
{"compound": "C=CC(c1ccccc1)c1cc(-c2ccccc2-c2nnn[nH]2)cc(NC(=O)Nc2ccccc2F)c1NCC(C)C (centres unmarked) [Example 357]", "pIC50": 6.49}
{"compound": "O=C(Nc1ccc(C(F)(F)F)cc1F)Nc1cc(-c2ccccc2-c2nnn[nH]2)ccc1N(CCC(F)(F)F)Cc1ccc(OC(F)(F)F)cc1 [Example 301]", "pIC50": 8.10}

P: COc1ccc(-c2ccc(N(CC(C)C)CC(C)C)c(NC(=O)Nc3ccc(C#N)nc3)c2)c(C(=O)O)c1 [Example 498]
Q: Cc1ccc(NC(=O)Nc2cc(-c3ccccc3-c3nnn[nH]3)ccc2N(CCC(F)(F)F)Cc2ccc(F)cc2C(F)(F)F)cc1 [Example 502]
Hi team, can someone confirm which has the larger pIC50: P or Q ? Thanks. Kindly state the label of the option you pick.
Q

* * *

- assay_system: IDO (Homo sapiens, UniProt P14902)
- Sequence (P14902 whole entry): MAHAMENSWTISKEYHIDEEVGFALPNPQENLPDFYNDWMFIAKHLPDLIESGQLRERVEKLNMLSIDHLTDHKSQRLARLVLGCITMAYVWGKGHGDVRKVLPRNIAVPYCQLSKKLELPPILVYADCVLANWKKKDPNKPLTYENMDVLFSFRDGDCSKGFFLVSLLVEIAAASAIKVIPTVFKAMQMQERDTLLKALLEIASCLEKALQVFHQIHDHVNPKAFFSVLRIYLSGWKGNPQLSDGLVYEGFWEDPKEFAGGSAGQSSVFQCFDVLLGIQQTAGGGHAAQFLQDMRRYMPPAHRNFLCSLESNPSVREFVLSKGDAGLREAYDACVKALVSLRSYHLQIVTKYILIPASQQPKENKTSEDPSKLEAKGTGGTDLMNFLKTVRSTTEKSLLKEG
- test_details: LLE_IDO_ABS_DR (IDO assay)
pIC50: −log10 of the molar value.
assay_readout: pIC50

The examples below pair each entry with its known result.
{"query_smiles": "O=C(Nc1ccc(C2CC2)c(F)c1)Nc1cc(-c2ccccc2-c2nnn[nH]2)ccc1N(CCC(F)(F)F)Cc1ccc(F)cc1C(F)(F)F", "assay_system": "IDO (Homo sapiens, UniProt P14902)", "pIC50": 7.05}
{"query_smiles": "CC(C)CN(CC(C)C)c1ccc(-c2ccccc2-c2nnn[nH]2)cc1NC(=O)NC(C)(C)CC(C)(C)C", "assay_system": "IDO (Homo sapiens, UniProt P14902)", "pIC50": 5.04}
{"query_smiles": "Cc1ccc(NC(=O)Nc2cc(-c3ccccc3C(=O)O)cc(Cl)c2N(CC(C)C)CC(C)C)cc1", "assay_system": "IDO (Homo sapiens, UniProt P14902)", "pIC50": 8.42}
{"query_smiles": "Cc1ccc(NC(=O)Nc2cc(-c3ccccc3-c3nnn[nH]3)ccc2N(C)C2CCOCC2)cc1", "assay_system": "IDO (Homo sapiens, UniProt P14902)", "pIC50": 6.51}
{"query_smiles": "Cc1ccc(NC(=O)Nc2cc(-c3ccccc3C(=O)O)ccc2N(CC(C)C)CC2CCC2)cc1", "assay_system": "IDO (Homo sapiens, UniProt P14902)", "pIC50": 7.05}

I: Cc1ccc(NC(=O)Nc2cc(-c3cc(F)ccc3C(=O)O)c(F)cc2N(CC(C)C)C2CCCCC2)cc1
II: Cc1ccc(NC(=O)Nc2cc(-c3ccccc3-c3nnn[nH]3)ccc2N(C)c2ccccc2C(C)(C)C)cc1
III: CN(c1ccc(-c2ccccc2-c2nnn[nH]2)cc1NC(=O)Nc1ccccc1C(F)(F)F)C1CCCCC1
Given 3 molecules, produce a descending ranking by pIC50. Use the labels to give the ranking in the order requested.
I, II, III

* * *

- assay_system: Human IDO1 (Homo sapiens)
- test_details: IDO Kynurenine Assay with Human IDO1/HEK293 Cells
- cond: read-out: HEK human IDO-1 (IC50)
pIC50: −log10 of the molar value.
assay_readout: pIC50

{"query_smiles": "[2H]C([2H])(C(C)C)N(c1ccc(-c2cc(F)ccc2C(=O)O)cc1NC(=O)Nc1ccc(C)cc1)C([2H])([2H])C(C)C", "assay_system": "Human IDO1 (Homo sapiens)", "pIC50": 8.12}

1: CC(C)CN(c1cc(F)c(-c2ccccc2-c2nnn[nH]2)cc1NC(=O)Nc1ccccc1F)C1CCC(F)(F)CC1
2: CC(C)CN(c1cc(F)c(-c2cc(F)ccc2C(=O)O)cc1NC(=O)Nc1ccc(C(F)(F)F)cc1F)C1CCCCC1
Hi team, can someone confirm which has the larger pIC50: 1 or 2 ? Thanks. Kindly state the label of the option you pick.
1
(1: 8.22, 2: 8.00)

* * *

- assay_system: IDO (Homo sapiens)
- test_details: LLE_IDO_ABS_DR (IDO assay)
assay_readout: IC50 (nM)

The examples below pair each entry with its known result.
{"compound": "CC(C)CN(CC(C)C)c1ccc(-c2ccccc2-c2nnn[nH]2)cc1NC(=O)Nc1ccc(Br)cc1F", "assay_system": "IDO (Homo sapiens)", "IC50, nM": 1.84}
{"compound": "CC(C)CN(CC(C)C)c1ccc(-c2ccccc2-c2nn[nH]n2)cc1NC(=O)Nc1c(F)cccc1F", "assay_system": "IDO (Homo sapiens)", "IC50, nM": 10}
{"compound": "CCC1CCCCN1c1ccc(-c2ccccc2C(=O)O)cc1NC(=O)Nc1ccccc1F (stereo not drawn)", "assay_system": "IDO (Homo sapiens)", "IC50, nM": 2340}
{"compound": "CC(C)CN(CC(C)C)c1ccc(-c2ccccc2-c2nnn[nH]2)cc1NC(=O)NC1CC1", "assay_system": "IDO (Homo sapiens)", "IC50, nM": 1980}

A: CC(C)CN(c1ccc(-c2ccccc2C(=O)O)cc1NC(=O)Nc1ccccc1F)C1CCCC1
B: Cc1ccc(NC(=O)Nc2cc(-c3ccccc3-c3nnn[nH]3)ccc2N(CCC(F)(F)F)Cc2cccc(Cl)c2)cc1
C: CC(C)CN(CC(C)C)c1ccc(-c2ccccc2-c2nnn[nH]2)cc1NC(=O)Nc1ncccn1
D: O=C(Nc1ccc(F)cc1F)Nc1cc(-c2ccccc2-c2nnn[nH]2)ccc1N(CCC(F)(F)F)Cc1ccc(F)cc1
E: CC(C)CN(c1cc(F)c(-c2cc(F)ccc2C(=O)O)cc1NC(=O)Nc1ccccc1F)C1CCCCC1
Could you please order the items by IC50, going from the lowest number to the highest? Use the labels to give the ranking in the order requested.
E, A, B, D, C

I: O=C(Nc1ccc(OC(F)(F)F)cc1)Nc1cc(-c2ccccc2-c2nnn[nH]2)ccc1N(CCC(F)(F)F)Cc1ccc(OC(F)(F)F)cc1
II: CN(c1ccc(-c2ccccc2C(=O)O)cc1NC(=O)Nc1ccccc1F)c1ccccc1C(C)(C)C
III: Cc1ccc(NC(=O)Nc2cc(-c3ccccc3-c3nnn[nH]3)ccc2N(CCc2ccccc2)CCC(F)(F)F)cc1
Could you please order the items by IC50, going from the lowest number to the highest? Use the labels to give the ranking in the order requested.
I, III, II

I: Cc1ccc(NC(=O)Nc2cc(-c3ccccc3NS(C)(=O)=O)ccc2N(CC(C)C)CC(C)C)cc1
II: CCN(CC(C)(C)C)c1ccc(-c2cc(F)ccc2C(=O)O)cc1NC(=O)Nc1ccccc1F
Hi team, can someone confirm which has the larger IC50: I or II ? Thanks. Kindly state the label of the option you pick.
I
